Record form. Attribute: concentration at 24 h. Fill in for each entry.
Method Notes: liver concentrations after oral dosing in rats
Assay type: in vivo, Male Sprague-Dawley derived rats
Reported Conditions: male, Sprague-Dawley, liver; rat, 5 mg/kg oral, 24 hours
Value expressed in ng/g; do not type the unit.

Which concentration at 24 h reading was recorded for the molecule `CS(=O)(=O)Nc1ccc2c(c1)S(=O)(=O)N=C(c1c(O)c3ccccc3n(NC3CCC3)c1=O)N2` ?
280

Which concentration at 24 h reading was recorded for the molecule `CS(=O)(=O)NCc1csc2c1S(=O)(=O)N=C(c1c(O)c3ccccc3n(NC3CCC3)c1=O)N2` ?
2420

Which concentration at 24 h reading was recorded for the molecule `CS(=O)(=O)NCc1csc2c1S(=O)(=O)N=C(c1c(O)c3ccccc3n(NCC3CC3)c1=O)N2` ?
120
